// reported GI50 for each item listed
system: LOX IMVI; experiment: NCI tumour cell line growth inhibition, 48 h
Active and inactive are the calls of the source. No stated cut-off is given here; in the data, active = GI50 up to about 1.1 µM and inactive = higher.

[[record]]
molecule = "COc1ccc(-n2cnc3c(NC(Cc4ccccc4)C(=O)O)ncnc32)cc1 (stereo not given)"
study_target = "LOX IMVI"
endpoint_label = "GI50"
val = "> 100 µM (inactive)"

[[record]]
molecule = "CN(C)CCNC(=O)c1nc([N+](=O)[O-])cn1C"
study_target = "LOX IMVI"
endpoint_label = "GI50"
val = "> 100 µM (inactive)"

[[record]]
molecule = "CCCCCCCCCCCC(=O)NCc1ccc(OC(=O)CCCCCCCCCCC)c(OC)c1"
study_target = "LOX IMVI"
endpoint_label = "GI50"
val = "5.42 µM (inactive)"

[[record]]
molecule = "N#CC1(C#N)C2CCCCC23OC(=N)C1(C#N)C(c1ccccc1)O3 (stereo not given)"
study_target = "LOX IMVI"
endpoint_label = "GI50"
val = "17.3 µM (inactive)"

[[record]]
molecule = "NC(=O)c1cccc(/N=c2\\oc3ccc(Br)cc3cc2-c2nc3ccccc3[nH]2)c1"
study_target = "LOX IMVI"
endpoint_label = "GI50"
val = "16.1 µM (inactive)"

[[record]]
molecule = "O=C(O)Cn1cnc2c(O)nc(Nc3ccccc3)nc21"
study_target = "LOX IMVI"
endpoint_label = "GI50"
val = "> 100 µM (inactive)"


Problem: Item under review: NC(=S)N/N=C/C(=C/Nc1ccccc1)[N+](=O)[O-] . Reported GI50?
Solution: > 100 µM (inactive)

Problem: Similarly, CN(C)CCNCc1ccc2c(-c3ccccc3)nc3cc(Cl)c(Cl)cc3n12 ?
Solution: 7.48 µM (inactive)

Problem: Same question, COc1ccc(C(=O)N2CCN(c3ccc4[nH]c(=O)oc4c3)CC2)cc1 this time
Solution: > 100 µM (inactive)

Problem: Then CCOc1cc(NC(C)=O)ccc1C(=O)NN1C(=O)C(Oc2ccccc2)C1c1ccc(O)c(OC)c1 (stereo not given) ?
Solution: 29.8 µM (inactive)

Data credit: ChEMBL document CHEMBL1201862
